- test-system: Sodium channel protein type 5 subunit alpha (Homo sapiens)
- Sequence (Q14524 whole entry): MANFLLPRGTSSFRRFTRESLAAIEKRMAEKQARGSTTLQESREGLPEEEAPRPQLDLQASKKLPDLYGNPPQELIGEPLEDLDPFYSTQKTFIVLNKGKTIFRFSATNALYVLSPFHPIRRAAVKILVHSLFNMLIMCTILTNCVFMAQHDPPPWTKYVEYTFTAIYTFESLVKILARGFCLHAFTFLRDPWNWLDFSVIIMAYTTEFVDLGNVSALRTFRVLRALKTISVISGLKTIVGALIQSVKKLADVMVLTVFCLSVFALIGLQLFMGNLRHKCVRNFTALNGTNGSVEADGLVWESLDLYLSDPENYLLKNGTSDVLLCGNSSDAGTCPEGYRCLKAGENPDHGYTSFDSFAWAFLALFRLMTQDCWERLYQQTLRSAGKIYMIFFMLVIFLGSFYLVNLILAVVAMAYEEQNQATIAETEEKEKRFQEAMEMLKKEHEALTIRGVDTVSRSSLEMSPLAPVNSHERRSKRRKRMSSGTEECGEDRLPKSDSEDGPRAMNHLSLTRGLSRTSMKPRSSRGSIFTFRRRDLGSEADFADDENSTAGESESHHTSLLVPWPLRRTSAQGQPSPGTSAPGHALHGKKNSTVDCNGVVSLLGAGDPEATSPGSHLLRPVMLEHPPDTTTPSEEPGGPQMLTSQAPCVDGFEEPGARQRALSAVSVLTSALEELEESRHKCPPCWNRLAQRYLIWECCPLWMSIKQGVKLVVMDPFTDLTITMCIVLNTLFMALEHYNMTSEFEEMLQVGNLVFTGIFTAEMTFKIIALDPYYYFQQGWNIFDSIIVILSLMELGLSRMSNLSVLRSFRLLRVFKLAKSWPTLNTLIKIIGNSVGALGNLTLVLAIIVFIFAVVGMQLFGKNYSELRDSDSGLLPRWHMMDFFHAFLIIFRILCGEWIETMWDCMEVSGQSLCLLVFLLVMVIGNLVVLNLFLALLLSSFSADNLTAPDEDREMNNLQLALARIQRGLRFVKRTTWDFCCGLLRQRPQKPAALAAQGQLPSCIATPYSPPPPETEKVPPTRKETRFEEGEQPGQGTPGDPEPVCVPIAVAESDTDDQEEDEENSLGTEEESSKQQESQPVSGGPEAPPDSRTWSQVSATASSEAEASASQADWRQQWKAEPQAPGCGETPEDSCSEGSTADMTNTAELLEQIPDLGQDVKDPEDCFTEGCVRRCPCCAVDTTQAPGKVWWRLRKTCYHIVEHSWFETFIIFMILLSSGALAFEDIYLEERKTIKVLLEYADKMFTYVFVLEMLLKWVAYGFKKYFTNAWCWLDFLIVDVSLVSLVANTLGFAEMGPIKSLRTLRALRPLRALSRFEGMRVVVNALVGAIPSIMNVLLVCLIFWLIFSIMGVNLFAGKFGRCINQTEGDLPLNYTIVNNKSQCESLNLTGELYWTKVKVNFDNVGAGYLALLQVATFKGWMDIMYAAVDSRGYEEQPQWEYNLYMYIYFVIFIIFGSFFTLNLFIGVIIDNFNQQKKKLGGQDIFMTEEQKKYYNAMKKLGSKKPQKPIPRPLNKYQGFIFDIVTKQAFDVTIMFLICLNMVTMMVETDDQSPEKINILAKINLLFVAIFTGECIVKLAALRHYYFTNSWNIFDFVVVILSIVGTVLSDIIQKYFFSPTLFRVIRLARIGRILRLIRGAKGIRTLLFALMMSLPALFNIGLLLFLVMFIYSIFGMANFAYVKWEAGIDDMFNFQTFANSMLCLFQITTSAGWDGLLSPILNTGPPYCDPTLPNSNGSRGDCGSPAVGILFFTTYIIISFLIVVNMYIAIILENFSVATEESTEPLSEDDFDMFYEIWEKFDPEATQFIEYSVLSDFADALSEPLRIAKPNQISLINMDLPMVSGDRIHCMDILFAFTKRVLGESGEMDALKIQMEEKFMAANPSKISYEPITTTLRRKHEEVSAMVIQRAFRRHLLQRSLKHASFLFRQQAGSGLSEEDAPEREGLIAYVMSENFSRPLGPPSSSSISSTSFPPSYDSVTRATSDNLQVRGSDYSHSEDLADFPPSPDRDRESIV
- experiment-summary: Inhibition of Nav1.5 (unknown origin)

structure-as-smiles	IC50 / µM
COc1cc(NC(=O)Cc2ccc(Br)cc2)ccc1C[C@H]1COC(=O)N1	12.1
COc1cc(NC(=O)Cc2ccc(C(F)(F)F)cc2)ccc1C[C@H]1COC(=O)N1	13.2
COc1cc(NC(=O)Cc2ccc(Cl)cc2)ccc1C[C@H]1COC(=O)N1	10.5
COc1nc(NC(=O)Cc2ccc(Cl)cc2)ccc1C[C@H]1COC(=O)N1	10
COc1cc(NC(=O)Cc2ccc(Cl)cc2Cl)ccc1C[C@H]1COC(=O)N1	8.2
